Molecular target: SOS1 in K562 cells (Homo sapiens, UniProt Q07889)
Construct: endogenous in cells; host or cells: K562
Sequence (Q07889 1-1333): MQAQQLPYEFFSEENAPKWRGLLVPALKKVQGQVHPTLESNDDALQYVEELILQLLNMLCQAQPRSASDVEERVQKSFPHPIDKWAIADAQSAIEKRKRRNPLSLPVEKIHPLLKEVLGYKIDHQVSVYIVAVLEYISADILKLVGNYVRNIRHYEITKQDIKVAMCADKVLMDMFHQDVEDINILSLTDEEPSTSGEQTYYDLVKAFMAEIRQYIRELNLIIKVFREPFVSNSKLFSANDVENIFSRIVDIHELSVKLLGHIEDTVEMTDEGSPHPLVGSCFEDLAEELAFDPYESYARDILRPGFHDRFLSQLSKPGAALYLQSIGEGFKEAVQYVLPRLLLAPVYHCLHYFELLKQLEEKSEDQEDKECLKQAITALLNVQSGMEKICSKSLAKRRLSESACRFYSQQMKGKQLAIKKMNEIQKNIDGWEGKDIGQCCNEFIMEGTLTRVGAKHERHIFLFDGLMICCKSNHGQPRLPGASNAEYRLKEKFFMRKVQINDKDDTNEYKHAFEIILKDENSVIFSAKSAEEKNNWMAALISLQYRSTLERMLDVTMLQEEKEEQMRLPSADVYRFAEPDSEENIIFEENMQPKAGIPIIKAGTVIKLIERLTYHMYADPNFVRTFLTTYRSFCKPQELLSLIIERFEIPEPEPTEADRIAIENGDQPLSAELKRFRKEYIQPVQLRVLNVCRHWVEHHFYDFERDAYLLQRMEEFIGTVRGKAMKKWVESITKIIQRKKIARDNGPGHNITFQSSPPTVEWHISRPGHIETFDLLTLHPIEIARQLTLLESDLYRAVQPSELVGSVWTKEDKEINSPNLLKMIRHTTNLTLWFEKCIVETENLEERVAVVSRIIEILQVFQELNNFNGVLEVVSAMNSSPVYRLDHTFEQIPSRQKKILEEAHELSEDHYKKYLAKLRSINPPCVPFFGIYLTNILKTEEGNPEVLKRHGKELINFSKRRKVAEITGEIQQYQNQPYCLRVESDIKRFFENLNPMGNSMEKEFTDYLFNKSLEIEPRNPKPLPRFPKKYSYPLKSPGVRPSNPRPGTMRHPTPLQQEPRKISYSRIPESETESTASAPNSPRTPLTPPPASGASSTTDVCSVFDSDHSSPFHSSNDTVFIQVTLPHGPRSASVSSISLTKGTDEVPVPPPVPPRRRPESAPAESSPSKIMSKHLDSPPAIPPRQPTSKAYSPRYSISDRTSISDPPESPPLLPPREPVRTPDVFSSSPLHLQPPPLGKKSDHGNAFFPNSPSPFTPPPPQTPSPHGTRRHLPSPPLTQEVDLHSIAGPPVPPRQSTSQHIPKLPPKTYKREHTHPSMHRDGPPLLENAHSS
Assay: SOS1 degradation in K562 cells (Western blot)
Assay type: cell-based
Settings: 1.0 μM
percent SOS1 degradation at 1 µM values by entry

MOLECULE	ENDPOINT_VALUE
COc1cc2nc(C)nc(N[C@H](C)c3cc(N)cc(C(F)(F)F)c3)c2cc1OC1CCN(C(=O)CCCCCCCCCCCSc2cccc3c2CN(C2CCC(=O)NC2=O)C3=O)CC1 (stereo partly drawn)	35.5%
COc1cc2nc(C)nc(N[C@H](C)c3cc(N)cc(C(F)(F)F)c3)c2cc1OC1CCN(C(=O)CCCCCCSc2cccc3c2CN(C2CCC(=O)NC2=O)C3=O)CC1 (stereo partly drawn)	49.3%

Proceed to the following item.
Any idea what its percent SOS1 degradation at 1 µM is? The molecule is COc1cc2nc(C)nc(N[C@H](C)c3cc(N)cc(C(F)(F)F)c3)c2cc1OC1CCN(C(=O)CCCCCCCCSc2cccc3c2CN(C2CCC(=O)NC2=O)C3=O)CC1 (stereo partly drawn)
5.5%
